Values were extracted from patent US20030068675.

Molecular target: ZFP SBS#844 (synthetic)
Sequence (chain, as listed by the source): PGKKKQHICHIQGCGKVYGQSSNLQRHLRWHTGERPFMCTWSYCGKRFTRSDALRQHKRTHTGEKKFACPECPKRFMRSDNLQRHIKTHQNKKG
Experiment: EMSA
Settings: tags: MBP fusion
parameter_measured: Kd (nM)

INSERT INTO assay_data (binder, parameter_measured, observed_value) VALUES
  ('GAGATGGATC (dsDNA) DNA 1: GAGATGGATC DNA 2: GATCCATCTC', 'Kd', 444);
